Observed pKi for Muscarinic acetylcholine receptor M3 (Rattus norvegicus), reported per entry below.
One number for each entry, as −log10 of the molar value.

[[record]]
test_smiles = "CC(=O)O[C@@H]1C[C@@H]2C[C@H](OC(=O)Cc3ccccc3)C[C@@H]1N2C"
study_system = "Muscarinic acetylcholine receptor M3 (Rattus norvegicus)"
recorded_number = 4.02

[[record]]
test_smiles = "CC(=O)O[C@@H]1C[C@@H]2C[C@H](OC(=O)c3ccccc3Cl)C[C@@H]1N2C"
study_system = "Muscarinic acetylcholine receptor M3 (Rattus norvegicus)"
recorded_number = 4.08

[[record]]
test_smiles = "CC(=O)O[C@H]1C[C@@H]2C[C@@H](OC(=O)Cc3ccccc3)C[C@@H]1N2C"
study_system = "Muscarinic acetylcholine receptor M3 (Rattus norvegicus)"
recorded_number = 6.04


We next turn to a different compound, shown below.
The value of pKi measured for the compound `CC(=O)O[C@H]1C[C@@H]2C[C@@H](OC(=O)c3ccccc3Cl)C[C@@H]1N2C` turned out to be 5.85

====

What Ratio Ki was measured for each of the following?
- study_system: Muscarinic receptor M2 and M3 (Rattus norvegicus) (UniProt P08483+P10980)
- Sequence (P08483 whole entry, looked up): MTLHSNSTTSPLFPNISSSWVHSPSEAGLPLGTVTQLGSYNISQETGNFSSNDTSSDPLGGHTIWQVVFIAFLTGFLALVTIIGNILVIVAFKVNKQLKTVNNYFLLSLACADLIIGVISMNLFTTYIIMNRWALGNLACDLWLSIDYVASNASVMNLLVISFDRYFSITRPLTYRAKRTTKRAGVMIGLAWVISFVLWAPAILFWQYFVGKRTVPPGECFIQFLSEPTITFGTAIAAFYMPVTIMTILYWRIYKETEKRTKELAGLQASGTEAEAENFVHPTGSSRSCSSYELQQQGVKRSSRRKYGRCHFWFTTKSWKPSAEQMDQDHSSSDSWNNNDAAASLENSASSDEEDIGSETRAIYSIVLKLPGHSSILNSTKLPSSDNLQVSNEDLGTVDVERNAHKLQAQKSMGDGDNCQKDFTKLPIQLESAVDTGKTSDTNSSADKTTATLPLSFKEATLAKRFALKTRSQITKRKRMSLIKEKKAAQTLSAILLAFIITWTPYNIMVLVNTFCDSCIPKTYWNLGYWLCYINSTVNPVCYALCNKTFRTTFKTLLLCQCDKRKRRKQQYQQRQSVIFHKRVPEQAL
- Sequence (P10980 whole entry, looked up): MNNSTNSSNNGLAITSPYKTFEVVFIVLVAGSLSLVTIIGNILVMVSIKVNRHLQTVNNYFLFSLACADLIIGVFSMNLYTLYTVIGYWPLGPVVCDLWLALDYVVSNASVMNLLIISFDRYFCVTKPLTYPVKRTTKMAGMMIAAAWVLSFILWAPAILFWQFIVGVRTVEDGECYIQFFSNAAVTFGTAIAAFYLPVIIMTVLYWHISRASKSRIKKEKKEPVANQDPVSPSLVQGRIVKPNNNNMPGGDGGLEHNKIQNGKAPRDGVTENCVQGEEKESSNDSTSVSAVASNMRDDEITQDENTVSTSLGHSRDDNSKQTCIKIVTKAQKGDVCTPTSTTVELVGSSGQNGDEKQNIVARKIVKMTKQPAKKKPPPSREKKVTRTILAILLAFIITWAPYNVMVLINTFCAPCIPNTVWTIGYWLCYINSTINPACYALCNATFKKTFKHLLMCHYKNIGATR
- assay_method_text: Selectivity ratio of Ki for muscarinic M2 receptor in Sprague-Dawley rat left atria to Ki for muscarinic M3 receptor in Sprague-Dawley rat submandibulary gland
Answers are plain numbers.

Parameter requested: Ratio Ki. Apply to each item below.
1. CC(=O)O[C@@H]1C[C@@H]2C[C@H](OC(=O)c3ccccc3[N+](=O)[O-])C[C@@H]1N2C
2. CC(=O)O[C@H]1C[C@@H]2C[C@@H](OC(=O)Cc3ccccc3)C[C@@H]1N2C
3. CC(=O)O[C@H]1C[C@@H]2C[C@@H](OC(=O)c3ccccc3)C[C@@H]1N2C
4. CC(=O)O[C@@H]1C[C@@H]2C[C@H](OC(=O)c3ccccc3)C[C@@H]1N2C
5. CC(=O)O[C@H]1C[C@@H]2C[C@@H](OC(=O)c3ccccc3Cl)C[C@@H]1N2C

A.
1: 1.3; 2: 13; 3: 4; 4: 1.1; 5: 6.3

Parameter requested: Ratio Ki. Apply to each item below.
1. CC(=O)O[C@@H]1C[C@@H]2C[C@H](OC(=O)Cc3ccccc3)C[C@@H]1N2C
2. CC(=O)O[C@H]1C[C@@H]2C[C@@H](OC(=O)c3ccccc3[N+](=O)[O-])C[C@@H]1N2C

A.
0.9
2.6

The value of Ratio Ki measured for the compound `CC(=O)O[C@@H]1C[C@@H]2C[C@H](OC(=O)c3ccccc3Cl)C[C@@H]1N2C` turned out to be 1.1

====

- study_system: Muscarinic receptor 2 (Cavia porcellus, UniProt Q8VH27)
- Sequence (Q8VH27 whole entry): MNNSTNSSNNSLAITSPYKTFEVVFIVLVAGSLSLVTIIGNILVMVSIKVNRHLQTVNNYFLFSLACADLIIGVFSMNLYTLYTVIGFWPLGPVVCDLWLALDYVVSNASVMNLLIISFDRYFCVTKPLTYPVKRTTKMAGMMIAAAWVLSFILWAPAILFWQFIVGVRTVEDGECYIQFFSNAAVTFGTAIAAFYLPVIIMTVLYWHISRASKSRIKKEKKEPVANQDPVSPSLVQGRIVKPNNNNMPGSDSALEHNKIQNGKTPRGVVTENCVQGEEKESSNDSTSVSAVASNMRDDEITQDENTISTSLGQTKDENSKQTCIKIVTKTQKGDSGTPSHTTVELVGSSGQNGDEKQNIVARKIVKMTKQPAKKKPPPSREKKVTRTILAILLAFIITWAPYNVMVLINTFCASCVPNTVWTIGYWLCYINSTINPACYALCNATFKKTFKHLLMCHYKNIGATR
- assay_method_text: Antagonist activity at muscarinic M2 receptor in guinea pig left atria assessed as inhibition of carbachol-induced […]
- condition_summary: read-out: pA2 (converted)
What Kb was measured for each of the following?
Numbers only, in nM.

Consider the worked cases shown below.
[[record]]
test_smiles = "CC(=O)O[C@H]1C[C@@H]2C[C@@H](OC(=O)c3ccccc3Cl)C[C@@H]1N2C"
recorded_number = 631

[[record]]
test_smiles = "CC(=O)O[C@H]1C[C@@H]2C[C@@H](OC(=O)Cc3ccccc3)C[C@@H]1N2C"
recorded_number = 1100

[[record]]
test_smiles = "CC(=O)O[C@H]1C[C@@H]2C[C@@H](OC(=O)c3ccccc3[N+](=O)[O-])C[C@@H]1N2C"
recorded_number = 851


The value of Kb measured for the compound `CC(=O)O[C@H]1C[C@@H]2C[C@@H](OC(=O)c3ccccc3)C[C@@H]1N2C` turned out to be 1320
